Test system: P388 leukemia ip, CD2F1 mice, survival T/C
Experiment: NCI In Vivo Anticancer Drug Screen. Data for tumor model P388 Leukemia (intraperitoneal) in CD2F1 (CDF1) mice
Settings: endpoint: median survival time; dose: 6.25 mg/kg/injection; schedule: Q01DX009 (ip); vehicle: saline; higher = longer survival
Inconclusive results and toxic doses are left out.
Listed here are molecules together with their documented T/C.

smiles_data=CC1(C)CC2(CC3(C1)S(=O)(=O)CCS3(=O)=O)S(=O)(=O)CCS2(=O)=O value_kind=T/C assay_result="103 % of control"
smiles_data=CS(=O)(=O)OCCN(CCOS(C)(=O)=O)c1ccc(C=Nc2ccc(-c3csc(Cc4ccccc4)n3)cc2)cc1 value_kind=T/C assay_result="115 % of control"

Identify the measured T/C of "NC(N)=N/N=C/C=N/N=C(N)N" for P388 leukemia ip, CD2F1 mice, survival T/C.
118 % of control

// same read-out, input: "O=N[O-].O=N[O-].[Co].[NH-]CC[N-]CCO.[NH-]CC[N-]CCO"
95 % of control

Next molecule up: "Cc1cc(C(=O)O)sn1"
100 % of control
